Numbers sourced from paper PMC3154012.

assayed target: Mn-BM3h (wild-type cytochrome P450 BM3 heme domain) (Priestia megaterium, UniProt P14779)
Sequence (P14779 2-464 limits assumed): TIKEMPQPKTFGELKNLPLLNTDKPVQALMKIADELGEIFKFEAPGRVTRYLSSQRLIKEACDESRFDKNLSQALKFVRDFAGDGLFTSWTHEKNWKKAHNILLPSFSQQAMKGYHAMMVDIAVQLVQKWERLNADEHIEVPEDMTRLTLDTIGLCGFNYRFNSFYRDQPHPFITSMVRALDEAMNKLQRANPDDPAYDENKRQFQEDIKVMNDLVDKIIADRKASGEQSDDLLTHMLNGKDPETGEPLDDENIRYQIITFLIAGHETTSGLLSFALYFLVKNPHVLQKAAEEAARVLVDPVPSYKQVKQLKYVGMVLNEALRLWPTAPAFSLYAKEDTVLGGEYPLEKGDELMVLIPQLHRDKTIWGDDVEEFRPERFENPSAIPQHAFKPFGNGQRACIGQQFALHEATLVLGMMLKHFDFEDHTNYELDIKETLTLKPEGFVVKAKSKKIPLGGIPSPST
observed property: pKd
Answers are plain numbers, as −log10 of the molar value.

pKd reading for CCCCC/C=C\C/C=C\C/C=C\C/C=C\CCCC(=O)O : 6.15
